- TEST_NAME: Cytotoxicity against human HEK cells after 72 hrs by alamar blue assay
- Assay type: cell-based
- TEST_PARAMETERS: HEK293, 72 h
Counter-ions that a name gives are not always drawn.
ENDPOINT_NAME: IC50 (nM)

CC[C@]1(O)C[C@H]2CN(CCc3c([nH]c4ccccc34)[C@@](C(=O)OC)(c3cc4c(cc3OC)N(C=O)[C@H]3[C@@](O)(C(=O)OC)[C@H](OC(C)=O)[C@]5(CC)C=CCN6CC[C@]43[C@@H]65)C2)C1 [VINCRISTINE SULFATE]; 31

* * *

# IC50 annotations
- Tested on: HeLa
- TEST_NAME: Cytotoxicity against human HeLa cells after 72 hrs by alamar blue assay
- Assay type: functional, cell-based
Counter-ions that a name gives are not always drawn.
ENDPOINT_NAME: IC50

CCC(C)C[C@@H](C)[C@@H](O)[C@@H](C)C(=O)N[C@@H](CC(N)=O)C(=O)N[C@@H](CCCNC(=N)N)[C@@H](O)[C@@H](O)C(=O)NC(C(=O)N[C@H]1C(=O)N[C@H]([C@H](C)O)C(=O)N[C@H](CCCNC(=N)N)C(=O)N[C@@H](CC(C)C)C(=O)N(C)[C@@H](CCC(N)=O)C(=O)N[C@H]([C@H](OC)c2ccc(O)cc2)C(=O)N2CCCC[C@H]2C(=O)O[C@@H]1C)C(C)C(C)C(N)=O (relative stereo); 210 nM
CO[C@H](c1ccc(O)cc1)[C@H]1NC(=O)[C@H](CCC(N)=O)N(C)C(=O)[C@H](CC(C)C)NC(=O)[C@@H](CCCNC(=N)N)NC(=O)[C@@H]([C@H](C)O)NC(=O)[C@H](NC(=O)C(NC(=O)[C@H](O)[C@H](O)[C@H](CCCNC(=N)N)NC(=O)[C@H](CC(N)=O)NC(=O)[C@H](C)[C@H](O)[C@H](C)CC(C)C)C(C)C(C)C(N)=O)[C@@H](C)OC(=O)[C@@H]2CCCCN2C1=O (relative stereo); 110 nM
CO[C@H](c1ccc(O)cc1)[C@H]1NC(=O)[C@H](CCC(=O)O)N(C)C(=O)[C@H](CC(C)C)NC(=O)[C@@H](CCCNC(=N)N)NC(=O)[C@@H]([C@H](C)O)NC(=O)[C@H](NC(=O)C(NC(=O)[C@H](O)[C@H](O)[C@H](CCCNC(=N)N)NC(=O)[C@H](CC(N)=O)NC(=O)[C@H](C)[C@H](O)[C@H](C)CC(C)C)C(C)C(C)C(N)=O)[C@@H](C)OC(=O)[C@@H]2CCCCN2C1=O (relative stereo); 170 nM
CC[C@]1(O)C[C@H]2CN(CCc3c([nH]c4ccccc34)[C@@](C(=O)OC)(c3cc4c(cc3OC)N(C=O)[C@H]3[C@@](O)(C(=O)OC)[C@H](OC(C)=O)[C@]5(CC)C=CCN6CC[C@]43[C@@H]65)C2)C1 [VINCRISTINE SULFATE]; 36 nM

* * *

- System: NFF
- TEST_NAME: Cytotoxicity against human NFF cells after 72 hrs by alamar blue assay
- Format: cell-based
pIC50: −log10 of the molar value. Structures can show the parent of a compound that is named as a salt.
ENDPOINT_NAME: pIC50

CCC(C)C[C@@H](C)[C@@H](O)[C@@H](C)C(=O)N[C@@H](CC(N)=O)C(=O)N[C@@H](CCCNC(=N)N)[C@@H](O)[C@@H](O)C(=O)NC(C(=O)N[C@H]1C(=O)N[C@H]([C@H](C)O)C(=O)N[C@H](CCCNC(=N)N)C(=O)N[C@@H](CC(C)C)C(=O)N(C)[C@@H](CCC(N)=O)C(=O)N[C@H]([C@H](OC)c2ccc(O)cc2)C(=O)N2CCCC[C@H]2C(=O)O[C@@H]1C)C(C)C(C)C(N)=O (relative stereo); 6.82
CO[C@H](c1ccc(O)cc1)[C@H]1NC(=O)[C@H](CCC(N)=O)N(C)C(=O)[C@H](CC(C)C)NC(=O)[C@@H](CCCNC(=N)N)NC(=O)[C@@H]([C@H](C)O)NC(=O)[C@H](NC(=O)C(NC(=O)[C@H](O)[C@H](O)[C@H](CCCNC(=N)N)NC(=O)[C@H](CC(N)=O)NC(=O)[C@H](C)[C@H](O)[C@H](C)CC(C)C)C(C)C(C)C(N)=O)[C@@H](C)OC(=O)[C@@H]2CCCCN2C1=O (relative stereo); 6.43
CC[C@]1(O)C[C@H]2CN(CCc3c([nH]c4ccccc34)[C@@](C(=O)OC)(c3cc4c(cc3OC)N(C=O)[C@H]3[C@@](O)(C(=O)OC)[C@H](OC(C)=O)[C@]5(CC)C=CCN6CC[C@]43[C@@H]65)C2)C1 [VINCRISTINE SULFATE]; 7.77
CO[C@H](c1ccc(O)cc1)[C@H]1NC(=O)[C@H](CCC(=O)O)N(C)C(=O)[C@H](CC(C)C)NC(=O)[C@@H](CCCNC(=N)N)NC(=O)[C@@H]([C@H](C)O)NC(=O)[C@H](NC(=O)C(NC(=O)[C@H](O)[C@H](O)[C@H](CCCNC(=N)N)NC(=O)[C@H](CC(N)=O)NC(=O)[C@H](C)[C@H](O)[C@H](C)CC(C)C)C(C)C(C)C(N)=O)[C@@H](C)OC(=O)[C@@H]2CCCCN2C1=O (relative stereo); 6.59
